Test system: Saccharomyces cerevisiae BY4741 SeMeCo community
Method: z-score of subpopulation abundance vs DMSO median, subpopulation auxotrophic for HLM; higher = larger share of this subpopulation than in DMSO controls
Condition details: 10 µM; 24 h; SM minimal medium; subpopulation (auxotrophy): HLM
Where a name gives a salt, the structure may show the parent alone.
Category | rule: reported z-score of subpopulation abundance within range, see A (below -0.6), B (-0.6 to below 0.7), C (0.7 or more)

Hi there! Could you help me figure out the category for CCc1c2c(nc3ccc(OC(=O)N4CCC(N5CCCCC5)CC4)cc13)-c1cc3c(c(=O)n1C2)COC(=O)[C@]3(O)CC [Irinotecan HCl Trihydrate] please?
C

Sort Nc1ccc(S(=O)(=O)c2ccc(N)cc2)cc1 [Dapson] into one of the categories.
B

Quick check: band for CCOC(=O)C1=C(C)NC(C)=C(C(=O)OC)C1c1cccc([N+](=O)[O-])c1 (stereo not given) [Nitrendipine]
A

Dear colleague, I would appreciate it if you could identify the bin for CC1=CC[C@@](O)(C(C)C)CC1 [Terpinen-4-ol] and reply at your convenience.
B

Category of O=c1ccc2ccc(OCCCCN3CCN(c4cccc5sccc45)CC3)cc2[nH]1 [Brexpiprazole] :
B

Class? Entry: COC(=O)C1=C(C)NC(C)=C(C(=O)OCCN2CCN(C(c3ccccc3)c3ccccc3)CC2)C1c1cccc([N+](=O)[O-])c1 (stereo not given) [Manidipine 2HCl]
C

Field: class (z-score of subpopulation abundance) — entry: COc1cccc2c1C(=O)c1c(O)c3c(c(O)c1C2=O)CC(O)(C(=O)CO)CC3OC1CC(N)C(O)C(C)O1 (stereo not given) [Doxorubicin (Adriamycin) HCl]
C

Which z-score of subpopulation abundance band matches CNCc1cc(-c2ccccc2F)n(S(=O)(=O)c2cccnc2)c1 [Vonoprazan Fumarate (TAK-438)] ?
B

Input Cc1ncc([N+](=O)[O-])n1CCO [Metronidazole] ; output its category
A

// return the class label for O=C1CCc2cc(OCCCCc3nnnn3C3CCCCC3)ccc2N1 [Cilostazol]
B

Category of CN[C@@H]1[C@@H](O)[C@@H](O[C@@H]2[C@@H](O)[C@H](O[C@H]3OC(CN)=CC[C@H]3N)[C@@H](N)C[C@H]2N)OC[C@]1(C)O [Sisomicin sulfate] :
C

# bin lookup: classify N=C(N)NS(=O)(=O)c1ccc(N)cc1 [Sulfaguanidine] by its z-score of subpopulation abundance
A

Form: Item = CN1CCC(=C2c3ccccc3CCc3sccc32)CC1 [Pizotifen Malate] ; Class = ?
B

# bin lookup: classify CC[C@H]1OC(=O)[C@H](C)[C@@H](O[C@H]2C[C@@](C)(OC)[C@@H](O)[C@H](C)O2)[C@H](C)[C@@H](O[C@@H]2O[C@H](C)C[C@H](N(C)C)[C@H]2O)[C@](C)(O)C[C@@H](C)C(=O)[C@H](C)[C@@H](O)[C@]1(C)O [Erythromycin] by its z-score of subpopulation abundance
B

Exam item: assign Cc1cccc(N(C)C(=S)Oc2ccc3ccccc3c2)c1 [Tolnaftate] to the correct category.
A

----------
System: Saccharomyces cerevisiae BY4741 SeMeCo community
Method: z-score of subpopulation abundance vs DMSO median, subpopulation auxotrophic for HLM; higher = larger share of this subpopulation than in DMSO controls
Condition details: 10 µM; 24 h; SM minimal medium; subpopulation (auxotrophy): HLM
Structures can show the parent of a compound that is named as a salt.
Property name: z-score of subpopulation abundance
Please state the value as a number alone, without comment.

Any idea what z-score of subpopulation abundance was measured for O=C(Nc1ccc(Oc2ccc(Cl)cc2)c(Cl)c1)c1cc(I)cc(I)c1O [Rafoxanide] ?
0.01

I have this compound here, O=c1[nH]c(=O)n([C@H]2C[C@H](O)[C@@H](CO)O2)cc1/C=C/Br [Brivudine] , and I need its recorded z-score of subpopulation abundance.
-1.12

Which z-score of subpopulation abundance reading was recorded for the compound O=C1Nc2ccccc2C1=O [Isatin] ?
-1.17

Need z-score of subpopulation abundance, item OC[C@H]1O[C@H](OCC2O[C@@H](O)[C@H](O)[C@@H](O)[C@@H]2O)[C@H](O)[C@@H](O)[C@H]1O (some centres not stated) [Melibiose]
1.11

GET /values?readout=z-score of subpopulation abundance&item= CC(C)n1c(/C=C/C(O)CC(O)CC(=O)O)c(-c2ccc(F)cc2)c2ccccc21 (configuration not stated) [Fluvastatin Sodium]
21.3

Report z-score of subpopulation abundance for CC(C)(C)CC(C)(C)c1ccc(OCCOCC[N+](C)(C)Cc2ccccc2)cc1 [Benzethonium Chloride] please.
-0.12

Fill in: z-score of subpopulation abundance of CO[C@H]1C[C@@H]2CC[C@@H](C)[C@@](O)(O2)C(=O)C(=O)N2CCCC[C@H]2C(=O)O[C@H]([C@H](C)C[C@@H]2CC[C@@H](OP(C)(C)=O)[C@H](OC)C2)CC(=O)[C@H](C)/C=C(\C)[C@@H](O)[C@@H](OC)C(=O)[C@H](C)C[C@H](C)/C=C/C=C/C=C/1C [Ridaforolimus (Deforolimus, MK-8669)] is ___
16.1

Give the measured z-score of subpopulation abundance of OC(Cn1cncn1)(Cn1cncn1)c1ccc(F)cc1F [Fluconazole] .
-1.07

Which z-score of subpopulation abundance is reported for this compound? C/C=C\c1ccc(O)c(OC)c1 [Isoeugenol]
-0.07

Quick one: z-score of subpopulation abundance of COc1ccc2c3c1O[C@H]1C[C@@H](O)C=C[C@@]31CCN(C)C2 [Galanthamine] ?
1.04

Name the recorded z-score of subpopulation abundance for CN[C@H]1C(=O)N[C@@H]2Cc3ccc(cc3)Oc3cc4cc(c3O[C@@H]3O[C@H](C(=O)O)[C@@H](O)[C@H](O)[C@H]3NC(=O)CCCCCCCCC(C)C)Oc3ccc(cc3Cl)[C@@H](O)[C@@H]3NC(=O)[C@H](NC(=O)[C@@H]4NC(=O)[C@@H](NC2=O)c2cc(cc(O)c2Cl)Oc2cc1ccc2O)c1ccc(O)c(c1)-c1c(O[C@H]2O[C@H](CO)[C@@H](O)[C@H](O)[C@@H]2O)cc(O)cc1[C@@H](C(=O)NCCCN(C)C)NC3=O [Dalbavancin] .
1.32

Request the reported z-score of subpopulation abundance associated with CC(=O)[C@H]1CC[C@H]2[C@@H]3CCC4=CC(=O)CC[C@]4(C)[C@H]3CC[C@]12C [Progesterone]
-0.24

Quick one: z-score of subpopulation abundance for OCCN1CCN(CC/C=C2/c3ccccc3Sc3ccc(C(F)(F)F)cc32)CC1 [Flupenthixol dihydrochloride] ?
0.33

Need z-score of subpopulation abundance of CC(C(=O)O)c1ccc2c(c1)[nH]c1ccc(Cl)cc12 (configuration not stated) [Carprofen] , thanks.
0.84

Sample CCC(=O)Oc1ccc2c(c1)CCC1C2CCC2(C)C(OC(=O)CC)CCC12 (stereo not drawn) [Estradiol dipropionate(17-Beta-Estradiol-3,17-Dipropionate)] — what was its z-score of subpopulation abundance?
-0.83

Look up z-score of subpopulation abundance for this compound: COCCOC(=O)C1=C(C)NC(C)=C(C(=O)OC(C)C)C1c1cccc([N+](=O)[O-])c1 (configuration not stated) [Nimodipine]
-0.43

Record request: z-score of subpopulation abundance value, item C#C[C@]1(OC(C)=O)CC[C@H]2[C@@H]3CCC4=C[C@@H](OC(C)=O)CC[C@@H]4[C@H]3CC[C@@]21C [Ethynodiol diacetate]
-0.54

Field request: z-score of subpopulation abundance | item: Cc1ncc([N+](=O)[O-])n1CCOC(=O)c1ccccc1 [Metronidazole Benzoate]
-0.79

State the recorded z-score of subpopulation abundance for this entry: CCCc1cc(C(N)=S)ccn1 [Protionamide]
-0.03

Which z-score of subpopulation abundance value is on record for CCCOc1ccc2[nH]c(NC(=O)OC)nc2c1 [Oxibendazole] ?
0.16

Entry CCCCCCCCCCCC(=O)O [Lauric Acid] has what z-score of subpopulation abundance?
-1.21

For NC(=O)C(c1ccccc1)(c1ccccc1)[C@@H]1CCN(CCc2ccc3c(c2)CCO3)C1 [Darifenacin HBr] , what is its reported z-score of subpopulation abundance?
-0.63

Look up z-score of subpopulation abundance: C[C@H]1NCc2cc(-c3ccc4c(=O)c(C(=O)O)cn(C5CC5)c4c3OC(F)F)ccc21 [Garenoxacin]
0.1

Fill in the blank: the reported z-score of subpopulation abundance of CCOC(=O)C1=C[C@@H](OC(CC)CC)[C@H](NC(C)=O)[C@@H](N)C1 [Oseltamivir Phosphate] is ____.
0.29

Returns the measured z-score of subpopulation abundance for the input compound. Input: CCCN[C@H]1CCc2nc(N)sc2C1 [Pramipexole 2HCl Monohydrate]
-0.59

What does the record list as z-score of subpopulation abundance for COc1ccc(Cl)cc1C(=O)NCCc1ccc(S(=O)(=O)NC(=O)NC2CCCCC2)cc1 [Glyburide (Glibenclamide)] ?
-0.04

Fill in the blank: the reported z-score of subpopulation abundance of O=C1CC2(CCCC2)CC(=O)N1CCCCN1CCN(c2ncccn2)CC1 [Buspirone HCl] is ____.
-0.1

What z-score of subpopulation abundance value was documented for this compound, O=c1ccn(C2CC(O)C(CO)O2)c(=O)[nH]1 (configuration not stated) [2-deoxyuridine] ?
0.54

Looking for the measured z-score of subpopulation abundance of CCN(CC)CC#CCOC(=O)C(O)(c1ccccc1)C1CCCCC1 (configuration not stated) [Oxybutynin] , can you help?
-0.46

Entry CCN(CC)CCOC(=O)c1ccc(N)cc1Cl [Chloroprocaine HCl] : reported z-score of subpopulation abundance = ?
-0.23

Would you kindly share the measured z-score of subpopulation abundance for CC1=C(C(=O)OC(C)C)C(c2cccc([N+](=O)[O-])c2)C(C(=O)OC2CN(C(c3ccccc3)c3ccccc3)C2)=C(N)N1 (configuration not stated) [Azelnidipine] ?
0.09

Which value of z-score of subpopulation abundance has been reported for Cn1c(=O)c2c(ncn2CC(O)CO)n(C)c1=O (configuration not stated) [Dyphylline] in the records?
-0.91
